Assayed System: T1, Pum-HD (Drosophila melanogaster, UniProt P25822 1093-1426)
T1 sequence: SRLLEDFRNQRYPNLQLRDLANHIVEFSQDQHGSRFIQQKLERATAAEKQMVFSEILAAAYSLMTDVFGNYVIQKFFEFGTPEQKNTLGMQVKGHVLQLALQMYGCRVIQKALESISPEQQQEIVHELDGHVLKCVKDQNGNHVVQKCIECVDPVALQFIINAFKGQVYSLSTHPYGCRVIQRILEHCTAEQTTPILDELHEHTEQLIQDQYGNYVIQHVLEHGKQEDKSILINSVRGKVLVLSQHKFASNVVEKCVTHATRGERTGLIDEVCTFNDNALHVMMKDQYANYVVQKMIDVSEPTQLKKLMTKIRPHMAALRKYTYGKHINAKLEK
Assay Method Text: ITC
Measurement Name: Kd (nM)
Provide the reading as a plain figure in nM.

## Input Name the recorded Kd of the item UCGAAAAUUGUACAUAA (ssRNA) [NRE2 minus BoxA] in your answer.
## Output 10
